# testedSystem: UniProt P0DTD1
# assayNotes: biochemical
# testSettings: read-out: HP PLpro-NAB IC50 [μM] triplicates 1 mM DTT buffer; hit profiling; 1 mM DTT buffer; listed as semapimod (FhG)
experimentalEndpoint: IC50 (µM)

[[record]]
compound = "C/C(=N\\NC(=N)N)c1cc(NC(=O)CCCCCCCCC(=O)Nc2cc(/C(C)=N/NC(=N)N)cc(/C(C)=N/NC(=N)N)c2)cc(/C(C)=N/NC(=N)N)c1 [semapimod]"
testedsystem = "UniProt P0DTD1"
resultvalue = 5.23


* * *

# testedSystem: SARS-CoV-2 PLpro-NAB (Severe acute respiratory syndrome coronavirus 2, UniProt P0DTD1)
# assayNotes: biochemical
# testSettings: read-out: HP PLpro-NAB IC50 [μM] duplicates 1 mM L-cys buffer; hit profiling; 1 mM L-cys buffer; listed as semapimod (FhG)
experimentalEndpoint: IC50

[[record]]
molecule = "C/C(=N\\NC(=N)N)c1cc(NC(=O)CCCCCCCCC(=O)Nc2cc(/C(C)=N/NC(=N)N)cc(/C(C)=N/NC(=N)N)c2)cc(/C(C)=N/NC(=N)N)c1 [semapimod]"
experimentalendpoint = "IC50"
resultvalue = "14.4 µM"

